Some compounds, each annotated with its measured Population Healthy Nuclei (%).
Tested on: HEK-293T
Assay: Multiplex assay against HEK293T
Format: toxicity, cell-based
Settings: human, 12 h, 10 µM, compound concentration 10 uM, replicate 2
MEASURED ATTRIBUTE: Population Healthy Nuclei (%)

* O=C(NCCNCC(O)COc1ccc(O)cc1)N1CCOCC1.O=C(NCCNCC(O)COc1ccc(O)cc1)N1CCOCC1.O=C(O)/C=C/C(=O)O (centres undefined) [XAMOTEROL FUMARATE] | 86
* CCCCC[C@H](O)/C=C/[C@H]1[C@H](O)CC(=O)[C@@H]1CCCCCCC(=O)O | 75
* Cc1ccc(OCC(O)C(C)NC(C)C)c2c1CCC2.Cl (centres undefined) | 76
* COCCn1c(C)c(C)s/c1=N\C(=O)C1C(C)(C)C1(C)C | 75
* CN(C)C(=O)Cn1cc(-c2ccc(-c3nnc4ccccn34)cc2)cn1 | 80
* C[C@H](NC(=O)CNC(=O)c1cccc(Cl)c1)c1ccccc1 | 77
* O=c1ccc2ccc(OCCCCN3CCN(c4cccc5sccc45)CC3)cc2[nH]1 | 66
* O=C(Nc1cc(-c2ccccc2)nn1-c1ccccc1F)c1ccc([N+](=O)[O-])cc1 | 73
* COc1ccc2c(c1OCc1ccccc1)C[C@@H](C(=O)O)N(C(=O)C(c1ccccc1)c1ccccc1)C2 | 83
